Hey, just so you know, these numbers are from patent US20190367592A1.

For each entry below, report its Kd value.
# assayedSystem: T1, recombinant human Tau monomer, 2N4R isoform (amino acids 2-441) (human, UniProt P10636-8 2-441)
# T1 construct: range 2-441; N-terminal His-tag removed with TEV protease; also called monomeric Tau
# T1 sequence (P10636 other isoform, or with tags, fused parts or gaps limits assumed): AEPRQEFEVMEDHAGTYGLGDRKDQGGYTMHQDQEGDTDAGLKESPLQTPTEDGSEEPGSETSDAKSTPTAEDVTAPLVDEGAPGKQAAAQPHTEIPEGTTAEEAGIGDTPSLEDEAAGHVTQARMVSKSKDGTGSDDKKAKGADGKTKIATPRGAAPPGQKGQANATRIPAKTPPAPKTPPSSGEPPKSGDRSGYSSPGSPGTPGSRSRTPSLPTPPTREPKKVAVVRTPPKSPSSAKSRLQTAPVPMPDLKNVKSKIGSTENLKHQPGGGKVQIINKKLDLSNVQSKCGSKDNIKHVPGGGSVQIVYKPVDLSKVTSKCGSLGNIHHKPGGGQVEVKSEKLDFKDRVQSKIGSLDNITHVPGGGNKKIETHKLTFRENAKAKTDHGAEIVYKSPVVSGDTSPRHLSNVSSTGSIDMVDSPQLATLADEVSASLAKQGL
# method: SPR, captured IgG, Tau monomer analyte, 1:1 model; fit-quality column: -
Answers are plain numbers, in nM.

Please state Kd for every binder in the list that follows.
1. hu37D3.v28.B3 (antibody, V domains shown) VH: EVQLVESGGGLVQPGGSLRLSCAASGLIFRSYGMSWVRQAPGKGLEWVATINSGGTYTYYPDSVKGRFTISRDNSKNTLYLQMNSLRAEDTAVYYCANSYSGAMDYWGQGTLVTVSS VL: DDVLTQTPLSLPVTPGQPASISCRSSQSIVHSQGNTWFEWYLQKPGQSPQLLIYKVSNRFSGVPDRFSGSGSGTDFTLKISRVEAEDVGVYYCFQGSLVPWTFGQGTKVEIK
2. hu37D3-H9.v30.8 (antibody, V domains shown) VH: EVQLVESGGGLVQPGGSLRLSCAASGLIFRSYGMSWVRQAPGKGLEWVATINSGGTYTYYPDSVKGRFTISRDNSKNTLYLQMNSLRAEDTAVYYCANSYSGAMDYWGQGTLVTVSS VL: DDVLTQTPLSLPVTPGQPASISCRSSQSIVHSYGNTYFEWYLQKPGQSPQLLIYKVSNRFSGVPDRFSGSGSGTDFTLKISRVEAEDVGVYYCFQGSLVPWTFGQGTKVEIK

Result:
0.4
31.4
